biological target: mouse CD98hc ectodomain (recombinant) (mouse) (UniProt P10852); test: ELISA, VNAR-hFc in Expi293 medium on coated ectodomain
Sequence (P10852 100-526): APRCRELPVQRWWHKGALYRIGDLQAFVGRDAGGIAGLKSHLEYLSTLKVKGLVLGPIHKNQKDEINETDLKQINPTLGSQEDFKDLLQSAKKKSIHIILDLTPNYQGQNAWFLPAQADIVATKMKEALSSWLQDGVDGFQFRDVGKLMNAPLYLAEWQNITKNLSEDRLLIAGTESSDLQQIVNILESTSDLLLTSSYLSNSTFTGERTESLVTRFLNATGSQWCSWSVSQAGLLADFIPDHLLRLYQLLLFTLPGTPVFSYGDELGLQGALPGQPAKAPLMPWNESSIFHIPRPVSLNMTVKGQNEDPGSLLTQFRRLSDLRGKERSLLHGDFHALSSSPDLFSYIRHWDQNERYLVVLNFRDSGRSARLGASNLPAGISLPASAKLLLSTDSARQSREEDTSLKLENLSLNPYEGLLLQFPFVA
assay.readout: Binding [relative units] (relative units)
Format: numeric value only, no unit, no commentary.

Recorded Binding [relative units] (relative units) (binder H6 VNAR-hFc fusion (Fc fusion, Bivalent VNAR-Fc, VNAR N-terminal to human IgG1 Fc; Expi293; not shown: human IgG1 Fc (hinge, CH2, CH3) of vector pFUSE-hIgG1e3-Fc2) ARVDQTPQTITKEEGESLTINCVLRTHSNALASTSWYRKKSGSTREETISKGGRYVETVNSGSKSFSLRINDLTVEDSGTYRCNVYAFLEIQPNIYHEFDVYGDGTAVTVNA ): 0.186

Summary for this binder, G10 VNAR-hFc fusion (Fc fusion, Bivalent VNAR-Fc, VNAR N-terminal to human IgG1 Fc; Expi293; not shown: human IgG1 Fc (hinge, CH2, CH3) of vector pFUSE-hIgG1e3-Fc2) ARVDQTPQTITKETGESLTINCVLRDSNCALSSTYWYRKKSGSTNEENISKGGRYVETVNSGSKSFSLKINDLTVEDSGTYRCKVVFKLFSGRACAGEKDVYGGGTVVTVNA : Binding [relative units] (relative units) is 0.041

Sure, the documented Binding [relative units] (relative units) for H7 VNAR-hFc fusion (Fc fusion, Bivalent VNAR-Fc, VNAR N-terminal to human IgG1 Fc; Expi293; not shown: human IgG1 Fc (hinge, CH2, CH3) of vector pFUSE-hIgG1e3-Fc2) ARVDQTPQTITKEEGESLTINCVLRYNNPALASTSWYRKKSGSTREETISKGGRYVETVNSGSKSFSLRINDLTVEDSGTYRCNVYFFPSFLVDKLQSHDVYGDGTAVTVNA is 0.108

What the record says about D1 VNAR-hFc fusion (Fc fusion, Bivalent VNAR-Fc, VNAR N-terminal to human IgG1 Fc; Expi293; also called D1-hFc; not shown: human IgG1 Fc (hinge, CH2, CH3) of vector pFUSE-hIgG1e3-Fc2) ARVDQTPQTITKEEGESLTINCVLRHNYSALASTSWYRKKSGSTREETISKGGRYVETVNSGSKSFSLRINDLTVEDSGTYRCNVYGISFIEEKIRYDFDVYGDGTAVTVNA : Binding [relative units] (relative units) is 0.417

Recorded Binding [relative units] (relative units) (binder H7A VNAR-hFc fusion (Fc fusion, Bivalent VNAR-Fc, VNAR N-terminal to human IgG1 Fc; Expi293; not shown: human IgG1 Fc (hinge, CH2, CH3) of vector pFUSE-hIgG1e3-Fc2) PGVDQTEQTIKKEEGESVTIKCVMRVKYPALASTSRYRKKSGSREETISKGGRYVETVNYSSKSISVRINDMTVEDSGRYRCNVYEEYAVDCDALVYQDVYGDGTAVTVNA ): 0.043

binder H8 VNAR-hFc fusion (Fc fusion, Bivalent VNAR-Fc, VNAR N-terminal to human IgG1 Fc; Expi293; not shown: human IgG1 Fc (hinge, CH2, CH3) of vector pFUSE-hIgG1e3-Fc2) ARVDQTPQTITKETGESLTINCVLRDSNCALPSTYWYRKKSGSTNEESISKGGRYVETVNSGSKSFSLRINDLVVEDSGTYRCKVGNYCIRLCYDMKFAVDVYGGGTAVTVNA , Binding [relative units] (relative units) observed: 0.049

// Binding [relative units] (relative units) lookup, binder = G12 VNAR-hFc fusion (Fc fusion, Bivalent VNAR-Fc, VNAR N-terminal to human IgG1 Fc; Expi293; not shown: human IgG1 Fc (hinge, CH2, CH3) of vector pFUSE-hIgG1e3-Fc2) ARVDQTPQTITKETGESLTINCVLRDSNCALSSTYWYRKKSGSTNEALISKGGRYVETVNSGSKSFSLRINDLTVEDSGTYRCNVVQDLRDDCFFRDVYGGGTAVTVNA , result: 0.044

Value of measured Binding [relative units] (relative units) for the entry G6 VNAR-hFc fusion (Fc fusion, Bivalent VNAR-Fc, VNAR N-terminal to human IgG1 Fc; Expi293; not shown: human IgG1 Fc (hinge, CH2, CH3) of vector pFUSE-hIgG1e3-Fc2) ARVDQTPQTITKEEGESLTINCVLRVETRALASTSWYRKKSGSTREETISKGGRYVETVNSGSKSFSLRINDLTVEDSGTYRCNVYIRHYSEFTQAPFRDVYGDGTAVTVNA : 0.041
